Test system: CYP1A1, CYP1A2
Experiment: Ratio of Km for CYP1A1 (unknown origin) expressed in Escherichia coli DH5alpha to Km for CYP1A2 (unknown origin) expressed in Escherichia coli DH5alpha
Format: ADME
Settings: human
measured parameter: selectivity ratio

The measured selectivity ratio associated with `CCOc1ccc(NC(C)=O)cc1` reads 8

Values from ChEMBL document CHEMBL3525978
